biological target: HLA-B*44:02; test: IEDB peptide-MHC binding, purified MHC/competitive/radioactivity; filed as Kd, often an IC50 or EC50 that approximates it; bounds were set here for any values at or beyond the usual limits of such assays; settings: source organism: Mammarenavirus juninense
pKd: −log10 of the molar value.
EXPERIMENTAL ENDPOINT: pKd

INSERT INTO assay_data (entry_sequence, experimental_endpoint, reported_measurement) VALUES
  ('PDVLRSDVY', 'pKd', '≤ 4.31');

====

target: HLA-A*03:01; assay: IEDB peptide-MHC binding, purified MHC/direct/fluorescence; filed as Kd, often an IC50 or EC50 that approximates it; bounds were set here for any values at or beyond the usual limits of such assays; details: source organism: Cryptosporidium parvum
EXPERIMENTAL ENDPOINT: Kd (nM)

INSERT INTO measurements (entry_sequence, experimental_endpoint, unit_name, reported_measurement) VALUES
  ('MIRTWRQNK', 'Kd', 'nM', 226);
